Test system: HeLa Nuclear Extract
Test: Activity of HeLa nuclear extract with fluorogenic lysyl substrates
Assay type: biochemical, human
Details: 50 μM substrate
Listing of entries alongside the reported Activity.
Response body: numeric value in pmol/min/µg, unit text excluded.

Guide cases for Activity, answers given:
# molecule, Activity (pmol/min/µg)
data = [
    ("CC(=O)N[C@@H](CCCCNC(=O)CCC(=O)O)C(=O)Nc1ccc2c(C)cc(=O)oc2c1", 0.012),
    ("CCCCCCCCCCCCCC(=O)NCCCC[C@H](NC(C)=O)C(=O)Nc1ccc2c(C)cc(=O)oc2c1", 0.819),
    ("COC(=O)CCC(=O)NCCCC[C@H](NC(C)=O)C(=O)Nc1ccc2c(C)cc(=O)oc2c1", 1.764),
]

Pending molecule:
INPUT: Any idea what Activity came out for CC(=O)NCCCCC(NC(C)=O)C(=O)Nc1ccc2c(C)cc(=O)oc2c1 (stereo not shown) [Ac-Lys(Ac.)-AMC, Ac-Lys(ε-acetyl)-AMC, reference compound] on HeLa Nuclear Extract?
OUTPUT: 31

###

Molecular target: HDAC2 (Homo sapiens, UniProt Q92769)
Construct: purchased ENZO Life Sciences BML-SE500
Sequence (Q92769 whole entry): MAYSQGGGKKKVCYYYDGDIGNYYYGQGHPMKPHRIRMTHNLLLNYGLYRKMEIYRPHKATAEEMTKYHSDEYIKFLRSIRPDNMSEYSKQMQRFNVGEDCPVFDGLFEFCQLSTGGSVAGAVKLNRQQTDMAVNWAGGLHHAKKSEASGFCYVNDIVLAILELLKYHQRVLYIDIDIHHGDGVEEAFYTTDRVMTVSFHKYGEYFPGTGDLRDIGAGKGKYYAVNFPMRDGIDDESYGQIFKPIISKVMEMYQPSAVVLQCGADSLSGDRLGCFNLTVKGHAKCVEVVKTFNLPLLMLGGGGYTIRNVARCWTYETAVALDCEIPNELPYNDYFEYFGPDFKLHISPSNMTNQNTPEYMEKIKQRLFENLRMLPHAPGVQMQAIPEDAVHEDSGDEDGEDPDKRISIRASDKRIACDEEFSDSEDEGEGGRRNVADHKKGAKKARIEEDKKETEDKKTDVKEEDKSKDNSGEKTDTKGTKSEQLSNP
Assay: HDAC activity with fluorogenic lysyl substrates
Format: biochemical
Details: 50 μM substrate
parameter-measured: Activity (pmol/min/µg)
Response body: numeric value in pmol/min/µg, unit text excluded.

# compound, unit-descriptor, Activity
rows = [
    ("COC(=O)CCC(=O)NCCCC[C@H](NC(C)=O)C(=O)Nc1ccc2c(C)cc(=O)oc2c1 [Compound 5]", "pmol/min/µg", 31.330),
    ("CC(=O)NCCCCC(NC(C)=O)C(=O)Nc1ccc2c(C)cc(=O)oc2c1 (stereo not shown) [Ac-Lys(Ac.)-AMC, Ac-Lys(ε-acetyl)-AMC, reference compound]", "pmol/min/µg", 554),
    ("CC(=O)N[C@@H](CCCCNC(=O)CCC(=O)O)C(=O)Nc1ccc2c(C)cc(=O)oc2c1 [Compound 1]", "pmol/min/µg", 0.28),
]

Pending compound:
INPUT: Any idea what Activity came out for CCCCCCCCCCCCCC(=O)NCCCC[C@H](NC(C)=O)C(=O)Nc1ccc2c(C)cc(=O)oc2c1 [Compound 4] on HDAC2 (Homo sapiens, UniProt Q92769)?
OUTPUT: 83.05

###

Molecular target: HDAC3/NCOR1 Complex (Homo sapiens)
Construct: purchased ENZO Life Sciences BML-SE515
Sequence (O15379 whole entry): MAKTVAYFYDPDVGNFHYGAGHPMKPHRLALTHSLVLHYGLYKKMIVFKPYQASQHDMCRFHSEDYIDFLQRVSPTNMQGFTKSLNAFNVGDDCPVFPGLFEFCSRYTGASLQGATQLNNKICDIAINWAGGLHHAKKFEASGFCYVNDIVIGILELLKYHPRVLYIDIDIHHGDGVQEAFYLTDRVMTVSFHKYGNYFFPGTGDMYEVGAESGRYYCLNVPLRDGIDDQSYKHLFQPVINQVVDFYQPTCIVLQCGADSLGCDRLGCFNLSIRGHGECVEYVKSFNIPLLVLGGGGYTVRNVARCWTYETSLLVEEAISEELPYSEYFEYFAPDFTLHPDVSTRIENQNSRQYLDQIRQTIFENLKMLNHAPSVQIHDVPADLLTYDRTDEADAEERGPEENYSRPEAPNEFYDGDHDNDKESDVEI
Sequence (O75376 395-489 partner limits assumed): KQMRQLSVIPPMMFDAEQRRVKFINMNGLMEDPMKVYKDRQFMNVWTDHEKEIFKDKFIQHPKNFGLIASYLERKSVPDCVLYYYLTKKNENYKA
Assay: HDAC activity with fluorogenic lysyl substrates
Type: biochemical
Settings: 50 μM substrate
parameter-measured: Activity (pmol/min/µg)
Response body: numeric value in pmol/min/µg, unit text excluded.

Guide cases for Activity, answers given:
# compound, Activity / pmol/min/µg
records = [
    ("CCCCCCCCCCCCCC(=O)NCCCC[C@H](NC(C)=O)C(=O)Nc1ccc2c(C)cc(=O)oc2c1", 79.023),
    ("COC(=O)CCC(=O)NCCCC[C@H](NC(C)=O)C(=O)Nc1ccc2c(C)cc(=O)oc2c1", 53.750),
    ("CC(=O)NCCCCC(NC(C)=O)C(=O)Nc1ccc2c(C)cc(=O)oc2c1 (stereo not shown) [Ac-Lys(Ac.)-AMC, Ac-Lys(ε-acetyl)-AMC, reference compound]", 668),
]

Pending compound:
INPUT: Give the measured Activity of CC(=O)N[C@@H](CCCCNC(=O)CCC(=O)O)C(=O)Nc1ccc2c(C)cc(=O)oc2c1 .
OUTPUT: 0.40

###

Target: HDAC7 (Homo sapiens, UniProt Q8WUI4)
Construct: made in house; host or cells: E. coli
Sequence (Q8WUI4 483-903): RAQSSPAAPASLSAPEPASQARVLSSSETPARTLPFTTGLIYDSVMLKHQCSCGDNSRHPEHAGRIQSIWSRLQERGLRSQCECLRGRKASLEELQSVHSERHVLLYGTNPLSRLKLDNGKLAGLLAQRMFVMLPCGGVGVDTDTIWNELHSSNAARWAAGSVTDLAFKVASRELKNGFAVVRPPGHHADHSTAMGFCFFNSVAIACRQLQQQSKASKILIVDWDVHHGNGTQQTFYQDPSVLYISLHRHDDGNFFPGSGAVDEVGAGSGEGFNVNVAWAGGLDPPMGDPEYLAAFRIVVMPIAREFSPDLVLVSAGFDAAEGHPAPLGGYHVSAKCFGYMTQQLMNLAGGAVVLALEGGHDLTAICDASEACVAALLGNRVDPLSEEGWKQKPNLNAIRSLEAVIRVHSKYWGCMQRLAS
Assay: HDAC activity with fluorogenic lysyl substrates
Format: biochemical
Conditions: 50 μM substrate
Description: The Ac-Lys(Succ.)-AMC substrate was tested for activity with recombinant preparations of human HDACs 1-11, SIRTs 1-4, 6 and 7, a complex of HDAC3 with a fragment of the activating protein NCOR1 and with HeLa nuclear extract, a rich source of active HDACs in their native multiprotein complexes. […]

# compound, Activity (pmol/min/μg)
records = [
    ("CC(=O)N[C@@H](CCCCNC(=O)CCC(=O)O)C(=O)Nc1ccc2c(C)cc(=O)oc2c1", "Undetectable"),
    ("CC(=O)NCCCCC(NC(C)=O)C(=O)Nc1ccc2c(C)cc(=O)oc2c1 (stereo not shown) [Ac-Lys(Ac.)-AMC, Ac-Lys(ε-acetyl)-AMC, reference compound]", "Undetectable"),
    ("CCCCCCCCCCCCCC(=O)NCCCC[C@H](NC(C)=O)C(=O)Nc1ccc2c(C)cc(=O)oc2c1", "Undetectable"),
    ("COC(=O)CCC(=O)NCCCC[C@H](NC(C)=O)C(=O)Nc1ccc2c(C)cc(=O)oc2c1", "Undetectable"),
]
